These entries and their values trace back to patent US6410541B2.

system_under_test: farnesyl protein transferase (UniProt Q02293+Q04631)
test_protocol: FPT IC50 (inhibition of farnesyl protein transferase, in vitro enzyme assay)
test_context: in vitro enzyme assay per WO 95/10516
pIC50: −log10 of the molar value.
Classification field: y = pIC50 at or over 8; n = pIC50 under 8.

CCOC(=O)C(=O)NC1CCC(C(=O)N2CCC(C3c4ncc(Br)cc4CCc4cc(Cl)cc(Br)c43)CC2)CC1 (centres unmarked) :: n
CON=C1CCC(CC(=O)N2CCC([C@H]3c4ncc(Br)cc4CCc4cc(Cl)cc(Br)c43)CC2)CC1 (some centres unmarked) :: y
O=C(O)CON=C1CCC(CC(=O)N2CCC([C@H]3c4ncc(Br)cc4CCc4cc(Cl)cc(Br)c43)CC2)CC1 (some centres unmarked) :: y

Query: Reported pIC50 at or above 8? "O=C(CN1CCC2(CC1)SCCS2)N1CCC([C@H]2c3ncc(Br)cc3CCc3cc(Cl)cc(Br)c32)CC1"
Result: n

Query: Reported pIC50 at or above 8? NC(=O)NN=C1CCC(CC(=O)N2CCC([C@H]3c4ncc(Br)cc4CCc4cc(Cl)cc(Br)c43)CC2)CC1 (some centres unmarked)
Result: y

Query: Reported pIC50 at or above 8? "O=C1CCC(C(=O)N2CCC([C@H]3c4ncc(Br)cc4CCc4cc(Cl)cc(Br)c43)CC2)CC1"
Result: y

Query: Reported pIC50 at or above 8? "O=C(CC1CCC2(CC1)OCCO2)N1CCC([C@H]2c3ncc(Br)cc3CCc3cc(Cl)cc(Br)c32)CC1"
Result: y
